The following compounds are listed with their measured residual biofilm growth (% of control) values.
System: Staphylococcus aureus
Test: Antibiofilm activity against methicillin-resistant Staphylococcus aureus assessed as inhibition of biofilm formation by measuring residual biofilm growth incubated for overnight at 10-fold dilution by crystal violet staining based microtiter plate assay relative to control
Assay type: functional
Non-standard residues stand in square brackets, D forms with d. Residues, ends and D or L forms follow the SMILES beside them. Agb = N=C(N)NCC[C@H](N)C(=O)O; Dap = NC[C@H](N)C(=O)O

{"COMPOUND": "CC[C@H](C)[C@H](NC(=O)[C@H](CCNC(=N)N)NC(=O)[C@@H](NC(=O)[C@H](C)NC(=O)[C@@H](NC(=O)[C@@H](NC(=O)[C@H](CC(C)C)NC(=O)[C@H](CCCNC(=N)N)NC(=O)[C@@H](N)C(C)C)[C@@H](C)CC)C(C)C)C(C)C)C(=O)N[C@@H](Cc1c[nH]c2ccccc12)C(=O)N[C@@H](CCCNC(=N)N)C(=O)N[C@@H](CCCNC(=N)N)C(N)=O (H-VRLIVAV[Agb]IWRR-NH2)", "UNITS_SYMBOL": "%", "residual biofilm growth (% of control)": 103.5}
{"COMPOUND": "CC[C@H](C)[C@H](NC(=O)[C@H](CCCNC(=N)N)NC(=O)[C@@H](NC(=O)[C@H](C)NC(=O)[C@@H](NC(=O)[C@@H](NC(=O)[C@H](CC(C)C)NC(=O)[C@H](CCCNC(=N)N)NC(=O)[C@@H](N)C(C)C)[C@@H](C)CC)C(C)C)C(C)C)C(=O)N[C@@H](Cc1c[nH]c2ccccc12)C(=O)N[C@@H](CCCNC(=N)N)C(=O)N[C@@H](CN)C(N)=O (H-VRLIVAVRIWR[Dap]-NH2)", "UNITS_SYMBOL": "%", "residual biofilm growth (% of control)": 11.9}

====

System: Staphylococcus aureus
Assay: Antibiofilm activity against methicillin-resistant Staphylococcus aureus assessed as inhibition of biofilm formation incubated for overnight by crystal violet staining based microtiter plate assay
Type: functional, organism-based
Non-standard residues stand in square brackets, D forms with d. Residues, ends and D or L forms follow the SMILES beside them. Agb = N=C(N)NCC[C@H](N)C(=O)O; Orn = NCCC[C@H](N)C(=O)O; Dab = NCC[C@H](N)C(=O)O; Dap = NC[C@H](N)C(=O)O
QUANTITY: inhibition

{"COMPOUND": "CC[C@H](C)[C@H](NC(=O)[C@H](CCCNC(=N)N)NC(=O)[C@@H](NC(=O)[C@H](C)NC(=O)[C@@H](NC(=O)[C@@H](NC(=O)[C@H](CC(C)C)NC(=O)[C@H](CCN)NC(=O)[C@@H](N)C(C)C)[C@@H](C)CC)C(C)C)C(C)C)C(=O)N[C@@H](Cc1c[nH]c2ccccc12)C(=O)N[C@@H](CCCNC(=N)N)C(=O)N[C@@H](CCCNC(=N)N)C(N)=O (H-V[Dab]LIVAVRIWRR-NH2)", "TARGET_ENTITY": "Staphylococcus aureus", "RECORDED_VALUE": "Dose-dependent effect"}
{"COMPOUND": "CC[C@H](C)[C@H](NC(=O)[C@H](CCCNC(=N)N)NC(=O)[C@@H](NC(=O)[C@H](C)NC(=O)[C@@H](NC(=O)[C@H](CN)NC(=O)[C@H](CC(C)C)NC(=O)[C@H](CCCNC(=N)N)NC(=O)[C@@H](N)C(C)C)C(C)C)C(C)C)C(=O)N[C@@H](Cc1c[nH]c2ccccc12)C(=O)N[C@@H](CCCNC(=N)N)C(=O)N[C@@H](CCCNC(=N)N)C(N)=O (H-VRL[Dap]VAVRIWRR-NH2)", "TARGET_ENTITY": "Staphylococcus aureus", "RECORDED_VALUE": "Dose-dependent effect"}
{"COMPOUND": "CC[C@H](C)[C@H](NC(=O)[C@H](CCCNC(=N)N)NC(=O)[C@@H](NC(=O)[C@H](CN)NC(=O)[C@@H](NC(=O)[C@@H](NC(=O)[C@H](CC(C)C)NC(=O)[C@H](CCCNC(=N)N)NC(=O)[C@@H](N)C(C)C)[C@@H](C)CC)C(C)C)C(C)C)C(=O)N[C@@H](Cc1c[nH]c2ccccc12)C(=O)N[C@@H](CCCNC(=N)N)C(=O)N[C@@H](CCCNC(=N)N)C(N)=O (H-VRLIV[Dap]VRIWRR-NH2)", "TARGET_ENTITY": "Staphylococcus aureus", "RECORDED_VALUE": "Dose-dependent effect"}
{"COMPOUND": "CC[C@H](C)[C@H](NC(=O)[C@H](CCCNC(=N)N)NC(=O)[C@@H](NC(=O)[C@H](C)NC(=O)[C@@H](NC(=O)[C@@H](NC(=O)[C@H](CC(C)C)NC(=O)[C@H](CCCNC(=N)N)NC(=O)[C@@H](N)C(C)C)[C@@H](C)CC)C(C)C)C(C)C)C(=O)N[C@@H](Cc1c[nH]c2ccccc12)C(=O)N[C@@H](CCCNC(=N)N)C(=O)N[C@@H](CCNC(=N)N)C(N)=O (H-VRLIVAVRIWR[Agb]-NH2)", "TARGET_ENTITY": "Staphylococcus aureus", "RECORDED_VALUE": "Dose-dependent effect"}
{"COMPOUND": "CC[C@H](C)[C@H](NC(=O)[C@H](CCCNC(=N)N)NC(=O)[C@H](CN)NC(=O)[C@H](C)NC(=O)[C@@H](NC(=O)[C@@H](NC(=O)[C@H](CC(C)C)NC(=O)[C@H](CCCNC(=N)N)NC(=O)[C@@H](N)C(C)C)[C@@H](C)CC)C(C)C)C(=O)N[C@@H](Cc1c[nH]c2ccccc12)C(=O)N[C@@H](CCCNC(=N)N)C(=O)N[C@@H](CCCNC(=N)N)C(N)=O (H-VRLIVA[Dap]RIWRR-NH2)", "TARGET_ENTITY": "Staphylococcus aureus", "RECORDED_VALUE": "Dose-dependent effect"}
{"COMPOUND": "CC[C@H](C)[C@H](NC(=O)[C@H](CCCNC(=N)N)NC(=O)[C@@H](NC(=O)[C@H](C)NC(=O)[C@@H](NC(=O)[C@@H](NC(=O)[C@H](CC(C)C)NC(=O)[C@H](CCCNC(=N)N)NC(=O)[C@@H](N)C(C)C)[C@@H](C)CC)C(C)C)C(C)C)C(=O)N[C@@H](CCNC(=N)N)C(=O)N[C@@H](CCCNC(=N)N)C(=O)N[C@@H](CCCNC(=N)N)C(N)=O (H-VRLIVAVRI[Agb]RR-NH2)", "TARGET_ENTITY": "Staphylococcus aureus", "RECORDED_VALUE": "Dose-dependent effect"}
{"COMPOUND": "CC[C@H](C)[C@H](NC(=O)[C@H](CCCNC(=N)N)NC(=O)[C@@H](NC(=O)[C@H](C)NC(=O)[C@@H](NC(=O)[C@@H](NC(=O)[C@H](CC(C)C)NC(=O)[C@H](CN)NC(=O)[C@@H](N)C(C)C)[C@@H](C)CC)C(C)C)C(C)C)C(=O)N[C@@H](Cc1c[nH]c2ccccc12)C(=O)N[C@@H](CCCNC(=N)N)C(=O)N[C@@H](CCCNC(=N)N)C(N)=O (H-V[Dap]LIVAVRIWRR-NH2)", "TARGET_ENTITY": "Staphylococcus aureus", "RECORDED_VALUE": "Dose-dependent effect"}
{"COMPOUND": "CC[C@H](C)[C@H](NC(=O)[C@H](CC(C)C)NC(=O)[C@H](CCCNC(=N)N)NC(=O)[C@@H](N)C(C)C)C(=O)N[C@H](C(=O)N[C@@H](C)C(=O)N[C@H](C(=O)N[C@@H](CCCNC(=N)N)C(=O)N[C@@H](CN)C(=O)N[C@@H](Cc1c[nH]c2ccccc12)C(=O)N[C@@H](CCCNC(=N)N)C(=O)N[C@@H](CCCNC(=N)N)C(N)=O)C(C)C)C(C)C (H-VRLIVAVR[Dap]WRR-NH2)", "TARGET_ENTITY": "Staphylococcus aureus", "RECORDED_VALUE": "Dose-dependent effect"}
{"COMPOUND": "CC[C@H](C)[C@H](NC(=O)[C@H](CCCNC(=N)N)NC(=O)[C@@H](NC(=O)[C@H](C)NC(=O)[C@@H](NC(=O)[C@H](CCCN)NC(=O)[C@H](CC(C)C)NC(=O)[C@H](CCCNC(=N)N)NC(=O)[C@@H](N)C(C)C)C(C)C)C(C)C)C(=O)N[C@@H](Cc1c[nH]c2ccccc12)C(=O)N[C@@H](CCCNC(=N)N)C(=O)N[C@@H](CCCNC(=N)N)C(N)=O (H-VRL[Orn]VAVRIWRR-NH2)", "TARGET_ENTITY": "Staphylococcus aureus", "RECORDED_VALUE": "Dose-dependent effect"}
{"COMPOUND": "CC[C@H](C)[C@H](NC(=O)[C@H](CCCNC(=N)N)NC(=O)[C@@H](NC(=O)[C@H](C)NC(=O)[C@@H](NC(=O)[C@@H](NC(=O)[C@H](CC(C)C)NC(=O)[C@H](CCCNC(=N)N)NC(=O)[C@@H](N)C(C)C)[C@@H](C)CC)C(C)C)C(C)C)C(=O)N[C@@H](Cc1c[nH]c2ccccc12)C(=O)N[C@@H](CCCNC(=N)N)C(=O)N[C@@H](CN)C(N)=O (H-VRLIVAVRIWR[Dap]-NH2)", "TARGET_ENTITY": "Staphylococcus aureus", "RECORDED_VALUE": "Dose-dependent effect"}

Source of measurements: ChEMBL document CHEMBL4376833
